Value source: patent US20180099931A1

- Measurement Target: F508delCFTR (Homo sapiens, UniProt P13569, DEL508-508)
- Construct: expressed in transfected cells; host or cells: CFBE41o- human lung-derived epithelial cells (CFBE4lo-F508delCFTR-HRP), doxycycline-inducible
- Sequence (P13569 with tags, fused parts or gaps DEL508-508): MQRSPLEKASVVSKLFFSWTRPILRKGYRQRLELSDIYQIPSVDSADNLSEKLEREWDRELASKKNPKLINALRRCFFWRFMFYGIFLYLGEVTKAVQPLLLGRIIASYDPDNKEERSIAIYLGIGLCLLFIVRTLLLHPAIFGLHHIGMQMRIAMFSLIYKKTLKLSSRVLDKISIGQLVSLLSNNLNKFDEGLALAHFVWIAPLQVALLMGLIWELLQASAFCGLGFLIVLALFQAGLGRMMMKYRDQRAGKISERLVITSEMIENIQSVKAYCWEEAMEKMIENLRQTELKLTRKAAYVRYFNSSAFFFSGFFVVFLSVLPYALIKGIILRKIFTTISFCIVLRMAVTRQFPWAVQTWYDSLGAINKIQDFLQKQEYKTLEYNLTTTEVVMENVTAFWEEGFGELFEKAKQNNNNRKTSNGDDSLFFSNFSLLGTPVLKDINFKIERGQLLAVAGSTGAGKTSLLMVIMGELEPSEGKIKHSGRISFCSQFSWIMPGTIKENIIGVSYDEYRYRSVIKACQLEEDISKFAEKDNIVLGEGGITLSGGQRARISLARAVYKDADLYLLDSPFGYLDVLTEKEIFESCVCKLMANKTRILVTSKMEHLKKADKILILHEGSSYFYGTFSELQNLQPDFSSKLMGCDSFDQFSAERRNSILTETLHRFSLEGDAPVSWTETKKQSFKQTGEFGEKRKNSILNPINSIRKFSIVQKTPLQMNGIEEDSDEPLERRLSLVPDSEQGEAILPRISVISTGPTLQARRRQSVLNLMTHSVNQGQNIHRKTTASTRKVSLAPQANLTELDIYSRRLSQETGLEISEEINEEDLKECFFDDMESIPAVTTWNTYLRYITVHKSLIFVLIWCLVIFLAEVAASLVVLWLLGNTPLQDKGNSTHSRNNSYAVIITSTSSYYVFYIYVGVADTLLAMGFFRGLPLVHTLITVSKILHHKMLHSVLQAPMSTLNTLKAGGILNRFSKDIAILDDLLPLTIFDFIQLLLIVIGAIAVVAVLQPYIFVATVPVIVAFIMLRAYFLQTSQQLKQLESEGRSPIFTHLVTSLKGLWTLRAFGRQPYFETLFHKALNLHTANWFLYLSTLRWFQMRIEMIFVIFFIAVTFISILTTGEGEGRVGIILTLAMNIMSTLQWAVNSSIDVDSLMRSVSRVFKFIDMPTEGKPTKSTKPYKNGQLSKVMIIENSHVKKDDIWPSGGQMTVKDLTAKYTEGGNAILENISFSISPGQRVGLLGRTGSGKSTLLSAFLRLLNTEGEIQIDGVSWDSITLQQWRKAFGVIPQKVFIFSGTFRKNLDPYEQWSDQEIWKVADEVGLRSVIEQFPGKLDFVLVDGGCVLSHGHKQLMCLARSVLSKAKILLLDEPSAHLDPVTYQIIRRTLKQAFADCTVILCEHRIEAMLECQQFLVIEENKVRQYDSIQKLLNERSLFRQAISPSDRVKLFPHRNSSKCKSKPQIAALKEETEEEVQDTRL
- Protocol Text: Cell Surface Expression-Horse Radish Peroxidase (CSE-HRP) Assay
- Type: cell-based
- Experimental Setup: with co-corrector (2 μM of 3-[(2R,4R)-4-({[1-(2,2-difluoro-1,3-benzodioxol-5-yl)cyclopropyl]carbonyl}amino)-7-methoxy-3,4-dihydro-2H-chromen-2-yl]benzoic acid); read-out: EC50 (with co-corrector)
pEC50: −log10 of the molar value.
Recorded pEC50 values for a group of compounds are listed next.

Item: CCc1c(C(=O)N2[C@H](C(=O)O)[C@@H](C(C)(C)C)[C@H](NCc3cc(C(C)(C)C)ccc3OC)[C@@H]2c2ccccc2)cnn1-c1ccc(OC)nn1 [Example I-144] | pEC50: 5.00 to 6.00

Record COc1ccc(C(C)(C)C)cc1CN[C@H]1[C@H](C(C)(C)C)[C@@H](C(=O)O)N(C(=O)C2CC23CCOCC3)[C@H]1c1ccccc1 (some centres unmarked) [II-442] , field pEC50: 5.00 to 6.00

Value of measured pEC50 for the entry COc1ncc(C2CCC2)cc1CN[C@H]1[C@H](C23CC(C2)C3)[C@@H](C(=O)O)N(C(=O)OC(C)C)[C@H]1c1ccccc1 [Example I-236] : 5.00 to 6.00

Memo: COc1ccc2c(c1)[C@@](C)(C(=O)N1[C@H](C(=O)O)[C@@H](C(C)(C)C)[C@H](NCc3cc(C(C)(C)C)ccc3OC)[C@@H]1c1cccnc1OC)CC2 [II-569] , reported pEC50: 5.00 to 6.00

Documented pEC50 of CCc1cc2ccc(Cl)cc2nc1N[C@H]1[C@H](C(C)(C)C)[C@@H](C(=O)O)N(C(=O)C2CCCCC2)[C@H]1c1ccccc1 [III-149] : 5.00 to 6.00

Entry COc1ncc(-c2cccnc2C)cc1CN[C@H]1[C@H](C(C)(C)C)[C@@H](C(=O)O)N(C(=O)C2CCCCC2)[C@H]1c1ccccc1 [II-348] — recorded pEC50 = 5.00 to 6.00

Documented pEC50 of COc1ncc(C2CCC2)cc1CN[C@H]1[C@H](C(C)(C)C)[C@@H](C(=O)O)N(C(=O)OC(C)C)[C@H]1c1ccccc1C1CC1 [Example 93] : > 6.00

###

- Measurement Target: F508delCFTR (Homo sapiens, UniProt P13569, DEL508-508)
- Construct: expressed in transfected cells; host or cells: CFBE41o- human lung-derived epithelial cells (CFBE4lo-F508delCFTR-HRP), doxycycline-inducible
- Protocol Text: Cell Surface Expression-Horse Radish Peroxidase (CSE-HRP) Assay
- Format: cell-based
- Experimental Setup: with co-corrector (2 μM of 3-[(2R,4R)-4-({[1-(2,2-difluoro-1,3-benzodioxol-5-yl)cyclopropyl]carbonyl}amino)-7-methoxy-3,4-dihydro-2H-chromen-2-yl]benzoic acid); read-out: EC50 (with co-corrector)
Property: EC50

Illustrative cases are given below, each with its answer.
INSERT INTO measurements (compound, property, result_value) VALUES
  ('COc1ccc(-c2ccccc2)cc1CN[C@H]1[C@H](C(C)(C)C)[C@@H](C(=O)O)N(C(=O)OC(C)C)[C@H]1c1cccnc1N(C)C', 'EC50', '1 to 10 µM'),
  ('COc1ccc(C(F)(F)F)cc1CN[C@H]1[C@H](C23CC(C2)C3)[C@@H](C(=O)O)N(C(=O)C2CCCCC2)[C@H]1c1ccccc1', 'EC50', '< 1 µM'),
  ('Cc1cc(C(F)(F)F)cc(N[C@H]2[C@H](C(C)(C)C)[C@@H](C(=O)O)N(C(=O)C3CCCCO3)[C@H]2c2cccnc2N(C)C)n1 (relative stereo)', 'EC50', '1 to 10 µM'),
  ('COc1ccc(C(C)(C)C)cc1N[C@H]1[C@H](C(C)(C)C)[C@@H](C(=O)O)N(C(=O)C2CCCCC2)[C@H]1c1ccccc1', 'EC50', '1 to 10 µM'),
  ('COc1ccc(-c2sc(C)nc2C)cc1CN[C@H]1[C@H](C(C)(C)C)[C@@H](C(=O)O)N(C(=O)C2CCCCC2)[C@H]1c1ccccc1', 'EC50', '1 to 10 µM'),
  ('COc1ccc(C(C)(C)C)cc1CN[C@H]1[C@H](C(C)(C)C)[C@@H](C(=O)O)N(C(=O)[C@H]2[C@H](C(F)(F)F)[C@H]3CC[C@@H]2O3)[C@H]1c1ccccc1 (relative stereo)', 'EC50', '< 1 µM'),
  ('COCCS(=O)(=O)NC(=O)[C@H]1[C@H](C(C)(C)C)[C@@H](Nc2cc(C(F)(F)F)cc(C)n2)[C@@H](c2ccccc2)N1C(=O)C1CCCCC1 (racemic)', 'EC50', '1 to 10 µM'),
  ('COc1nc(C(C)(C)C)ccc1CN[C@H]1[C@H](C(C)(C)C)[C@@H](C(=O)O)N(C(=O)[C@@H]2CCCCO2)[C@H]1c1ccccc1', 'EC50', '< 1 µM'),
  ('COc1ccc(C(C)(C)C)cc1CN[C@H]1[C@H](C(C)(C)C)[C@@H](C(=O)O)N(C(=O)C2CC2c2ccncc2)[C@H]1c1ccccc1 (some centres unmarked)', 'EC50', '1 to 10 µM'),
  ('COc1ccc(C(C)(C)C)cc1CN[C@H]1[C@H](C(C)(C)C)[C@@H](C(=O)O)N(C(=O)C2CCCCC2C(=O)N2CCC2)[C@H]1c1ccccc1 (some centres unmarked)', 'EC50', '1 to 10 µM');

We next turn to a different compound, shown below.
Sure, the documented EC50 for CCS(=O)(=O)NC(=O)[C@H]1[C@H](C(C)(C)C)[C@@H](Nc2cc(C(F)(F)F)cc(C)n2)[C@@H](c2ccccc2)N1C(=O)C1CCCCC1 (racemic) is 1 to 10 µM

###

- Measurement Target: F508delCFTR (Homo sapiens, UniProt P13569, DEL508-508)
- Construct: expressed in transfected cells; host or cells: CFBE41o- human lung-derived epithelial cells (CFBE4lo-F508delCFTR-HRP), doxycycline-inducible
- Protocol Text: Cell Surface Expression-Horse Radish Peroxidase (CSE-HRP) Assay;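 for Maximum % activity (with co-corrector): co-corrector and positive control are both the same reference corrector at 2 µM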
- Format: cell-based
- Experimental Setup: CSE-HRP; with co-corrector (2 μM); maximum at any tested concentration, normalized to on-plate positive control
Property: Maximum % activity (with co-corrector)

Please review the following examples before continuing.
INSERT INTO results (molecule, property, result_value) VALUES
  ('CC(C)(C)c1cccc(CN[C@H]2[C@H](C(C)(C)C)[C@@H](C(=O)O)N(C(=O)C3CCCCC3)[C@H]2c2ccccc2)c1', 'Maximum % activity (with co-corrector)', '++ (≥150 and <350)'),
  ('COc1ccc(CN[C@H]2[C@H](C(C)(C)C)[C@@H](C(=O)O)N(C(=O)C3CCCCC3)[C@H]2c2ccccc2)c(C(F)(F)F)c1', 'Maximum % activity (with co-corrector)', '++ (≥150 and <350)'),
  ('COc1cc(C(F)(F)F)ccc1CN[C@H]1[C@H](C(C)(C)C)[C@@H](C(=O)O)N(C(=O)[C@@H]2CCCCO2)[C@H]1c1cccc2c1OCC2', 'Maximum % activity (with co-corrector)', '+++ (≥350)'),
  ('COc1nc2ccccc2cc1CN[C@H]1[C@H](C(C)(C)C)[C@@H](C(=O)O)N(C(=O)C2CCCCC2)[C@H]1c1ccccc1', 'Maximum % activity (with co-corrector)', '+++ (≥350)'),
  ('CCOc1ccc(Br)cc1CN[C@H]1[C@H](C(C)(C)C)[C@@H](C(=O)O)N(C(=O)C2CCCCC2)[C@H]1c1ccccc1', 'Maximum % activity (with co-corrector)', '+++ (≥350)'),
  ('COc1cc(C)ccc1CN[C@H]1[C@H](C(C)(C)C)[C@@H](C(=O)O)N(C(=O)[C@@H]2CCCCO2)[C@H]1c1cccnc1OC', 'Maximum % activity (with co-corrector)', '++ (≥150 and <350)'),
  ('COc1cc(Cl)ccc1CN[C@@H]1[C@@H](C(C)(C)C)[C@H](C(=O)O)N(C(=O)C2CCOC(C)(C)C2)[C@@H]1c1ccccc1N(C)C (mixture of isomers)', 'Maximum % activity (with co-corrector)', '+++ (≥350)'),
  ('COc1ccc(-c2ccc(C#N)cc2)cc1CN[C@H]1[C@H](C(C)(C)C)[C@@H](C(=O)O)N(C(=O)C2CCCCC2)[C@H]1c1ccccc1', 'Maximum % activity (with co-corrector)', '+++ (≥350)');

Param item: COc1ccc(C(F)(F)F)cc1CN[C@H]1[C@H](C(C)(C)C)[C@@H](C(=O)O)N(C(=O)[C@@H]2OCC[C@@H]2C)[C@H]1c1ccccc1 (relative stereo) ; param system: F508delCFTR (Homo sapiens, UniProt P13569, DEL508-508); output Maximum % activity (with co-corrector): +++ (≥350)

Given the molecule "COc1ncc(C2CCC2)cc1CN[C@H]1[C@H](C(C)(C)C)[C@@H](C(=O)O)N(C(=O)[C@@H]2CCCO2)[C@H]1c1cccnc1N(C)C" and test system F508delCFTR (Homo sapiens, UniProt P13569, DEL508-508), the measured Maximum % activity (with co-corrector) is +++ (≥350)
